- Tested on: Japanese medaka (Oryzias latipes)
- assay-notes: Fish short-term reproduction assay (FSTRA, OECD TG229), 21-day flow-through exposure
- study-conditions: hepatic VTG, 21-day exposure, measured conc.
Where a name gives a salt, the structure may show the parent alone.
Would you kindly list LOEC for decrease of VTG in females for each of these molecules?
Answers are plain numbers, in µg/L.

Solved cases (3 shown):
CCCN(CCOc1c(Cl)cc(Cl)cc1Cl)C(=O)n1ccnc1
44.9
O=C(c1ccc(OCCN2CCCCC2)cc1)c1c(-c2ccc(O)cc2)sc2cc(O)ccc12 [RAL, Raloxifene hydrochloride]
721
CC/C(=C(\c1ccccc1)c1ccc(OCCN(C)C)cc1)c1ccccc1 [TAM, tamoxifen citrate]
10.0

// moving on: another record for LOEC for decrease of VTG in females
Entry under review: CC(=O)N1CCN(c2ccc(OCC3COC(Cn4ccnc4)(c4ccc(Cl)cc4Cl)O3)cc2)CC1 (stereo not shown) . Reported LOEC for decrease of VTG in females?
233
